- experimental-system: glucan synthase (Saccharomyces cerevisiae, UniProt P38631)
- Construct: glucan synthase sources (2 μL permeabilized PM503 cells, or 3 μL membrane preparations from either PM503, BWP17, or ND158); endogenous in cells
- Sequence (P06780 1-206): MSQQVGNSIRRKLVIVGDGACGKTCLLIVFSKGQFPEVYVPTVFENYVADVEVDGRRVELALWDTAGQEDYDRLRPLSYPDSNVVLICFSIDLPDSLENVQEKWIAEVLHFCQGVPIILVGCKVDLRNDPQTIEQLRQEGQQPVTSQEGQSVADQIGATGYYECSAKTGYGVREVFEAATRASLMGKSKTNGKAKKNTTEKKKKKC
- Sequence (P38631 whole entry): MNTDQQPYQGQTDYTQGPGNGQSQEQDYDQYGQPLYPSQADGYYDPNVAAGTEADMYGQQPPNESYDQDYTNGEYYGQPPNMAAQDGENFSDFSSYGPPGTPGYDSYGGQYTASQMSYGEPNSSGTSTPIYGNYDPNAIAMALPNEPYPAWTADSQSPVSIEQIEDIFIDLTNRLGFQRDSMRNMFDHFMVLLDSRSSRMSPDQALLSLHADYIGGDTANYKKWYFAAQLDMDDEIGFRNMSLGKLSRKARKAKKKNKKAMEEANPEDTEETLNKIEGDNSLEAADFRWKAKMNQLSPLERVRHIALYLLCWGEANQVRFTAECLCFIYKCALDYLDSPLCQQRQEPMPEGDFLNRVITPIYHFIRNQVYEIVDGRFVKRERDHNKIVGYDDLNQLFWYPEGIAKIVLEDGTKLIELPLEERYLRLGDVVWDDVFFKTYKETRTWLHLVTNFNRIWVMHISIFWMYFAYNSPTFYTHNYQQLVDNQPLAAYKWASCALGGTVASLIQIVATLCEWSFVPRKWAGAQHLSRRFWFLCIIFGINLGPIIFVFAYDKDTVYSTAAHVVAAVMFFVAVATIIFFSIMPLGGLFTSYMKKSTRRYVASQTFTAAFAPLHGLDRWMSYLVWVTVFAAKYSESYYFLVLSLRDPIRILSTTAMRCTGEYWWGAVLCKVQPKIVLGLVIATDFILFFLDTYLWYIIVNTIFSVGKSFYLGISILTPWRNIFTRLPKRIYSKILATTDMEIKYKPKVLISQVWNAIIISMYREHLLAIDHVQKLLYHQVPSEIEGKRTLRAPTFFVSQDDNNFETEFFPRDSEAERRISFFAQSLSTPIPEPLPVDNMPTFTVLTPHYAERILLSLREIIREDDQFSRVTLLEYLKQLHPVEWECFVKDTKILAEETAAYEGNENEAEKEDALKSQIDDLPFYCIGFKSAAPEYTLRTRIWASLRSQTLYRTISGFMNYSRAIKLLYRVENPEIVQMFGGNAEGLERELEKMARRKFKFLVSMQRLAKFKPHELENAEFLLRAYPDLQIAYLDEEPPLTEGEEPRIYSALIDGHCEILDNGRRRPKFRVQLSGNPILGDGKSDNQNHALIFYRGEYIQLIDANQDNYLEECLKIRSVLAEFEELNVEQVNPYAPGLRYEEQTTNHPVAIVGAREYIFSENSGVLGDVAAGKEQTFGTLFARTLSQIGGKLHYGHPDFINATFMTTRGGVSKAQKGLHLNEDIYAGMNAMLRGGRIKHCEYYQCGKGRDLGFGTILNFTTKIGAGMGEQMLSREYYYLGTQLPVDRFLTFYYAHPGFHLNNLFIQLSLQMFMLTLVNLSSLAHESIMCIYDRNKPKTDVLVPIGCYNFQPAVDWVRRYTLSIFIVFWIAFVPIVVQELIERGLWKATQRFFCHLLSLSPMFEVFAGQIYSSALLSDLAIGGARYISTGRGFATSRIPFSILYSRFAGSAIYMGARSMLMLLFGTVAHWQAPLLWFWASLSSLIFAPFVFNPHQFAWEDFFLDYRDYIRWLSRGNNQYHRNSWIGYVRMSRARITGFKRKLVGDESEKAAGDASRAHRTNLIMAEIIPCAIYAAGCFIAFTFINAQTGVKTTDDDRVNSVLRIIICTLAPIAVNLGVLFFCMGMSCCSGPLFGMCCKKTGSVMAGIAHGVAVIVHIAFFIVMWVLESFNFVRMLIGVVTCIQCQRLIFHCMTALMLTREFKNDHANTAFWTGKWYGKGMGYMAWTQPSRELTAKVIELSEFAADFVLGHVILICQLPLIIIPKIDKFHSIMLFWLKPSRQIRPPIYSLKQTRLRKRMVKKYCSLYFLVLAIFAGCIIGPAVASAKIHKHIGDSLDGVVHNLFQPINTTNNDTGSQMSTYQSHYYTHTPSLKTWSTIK
- assay-explanation: β(1,3) glucan synthase assay, S. cerevisiae PM503 permeabilized cells or membrane preparation (IC50)
- Method: β(1,3) Glucan Synthase Assay: 1. Preparation of Permeabilized Saccharomyces cerevisiae Cells. Permeabilization of yeast cells was performed according to Crotti et al. (Analytical Biochemistry, 292, 8-16, 2001) with some modifications. A 10 ml-starter culture of the S. cerevisiae strain in YPD medium (1% yeast extract, 2% bacto-peptone, 2% dextrose) with OD600=3-4 was used to inoculate 1 liter of YPD. The culture was grown at 30° C. until OD600=0-0.8. […]
Recorded measurements of pIC50, one per entry
As a rule, pIC50 stands for the negative log10 of the concentration, concentration in M.

Illustrative cases are given below, each with its answer.
O=c1c2c(cnn1-c1cc(F)cc(F)c1)N1CCN(CC1)S(=O)(=O)/C=C/CCCCCCCCO2 [2022Z] = 7.10
Nc1ccc(CS(=O)(=O)N2CCN(c3cnn(-c4cc(F)cc(F)c4)c(=O)c3OCC3(CF)CC3)CC2)cc1 [932Z] = 7.15
Cc1ccc(CNS(=O)(=O)N2CCN(c3cnn(-c4cccc(Cl)c4)c(=O)c3OCC3(C)CC3)CC2)cc1N [1683Z] = 6.86
COc1ccc(CS(=O)(=O)N2CCN(c3cnn(-c4cc(F)cc(F)c4)c(=O)c3OCC3(C)CC3)CC2)cc1N [1864Z] = 6.98
CCCCCCCSc1c(N2CCN(S(=O)(=O)Cc3ccccc3)CC2)cnn(-c2ccccc2)c1=O = 6.20
CC1(COc2c(N3CCN(S(=O)(=O)Cc4ccccc4)CC3)cnn(-c3cc(F)cc(F)c3)c2=O)CC1 [1529Z-191] = 6.68
CC(Oc1c(N2CCN(S(=O)(=O)Cc3cccc(N)c3)CC2)cnn(-c2cc(F)cc(F)c2)c1=O)C(C)(C)C (stereo not shown) = 6.23
CC1(COc2c(N3CCN(S(=O)(=O)Cc4cc(N)ccc4F)CC3)cnn(-c3cccc(Cl)c3)c2=O)CC1 [1904Z] = 6.97
O=c1c(N2CCCCC2)c(N2CCN(S(=O)(=O)Cc3ccccc3)CC2)cnn1-c1ccc(F)cc1 [61Z] = 6.20
CC1CCC(Oc2c(N3CCN(S(=O)(=O)CCCF)CC3)cnn(-c3cccc(Cl)c3)c2=O)C1 (stereo not shown) [1761Z] = 6.87

[in] Using the record for CC1(COc2c(N3CCN(S(=O)(=O)Cc4ccc(N)c(Cl)c4)CC3)cnn(-c3cc(F)cc(F)c3)c2=O)CC1 [Compound 1574Zo] , report its pIC50.
[out] 7.29

----------
- experimental-system: glucan synthase (Candida albicans)
- Construct: glucan synthase sources (2 μL permeabilized PM503 cells, or 3 μL membrane preparations from either PM503, BWP17, or ND158); endogenous in cells; host or cells: C. albicans strain BWP17, 100,000 g membrane fraction
- Sequence (O13428 1-1897): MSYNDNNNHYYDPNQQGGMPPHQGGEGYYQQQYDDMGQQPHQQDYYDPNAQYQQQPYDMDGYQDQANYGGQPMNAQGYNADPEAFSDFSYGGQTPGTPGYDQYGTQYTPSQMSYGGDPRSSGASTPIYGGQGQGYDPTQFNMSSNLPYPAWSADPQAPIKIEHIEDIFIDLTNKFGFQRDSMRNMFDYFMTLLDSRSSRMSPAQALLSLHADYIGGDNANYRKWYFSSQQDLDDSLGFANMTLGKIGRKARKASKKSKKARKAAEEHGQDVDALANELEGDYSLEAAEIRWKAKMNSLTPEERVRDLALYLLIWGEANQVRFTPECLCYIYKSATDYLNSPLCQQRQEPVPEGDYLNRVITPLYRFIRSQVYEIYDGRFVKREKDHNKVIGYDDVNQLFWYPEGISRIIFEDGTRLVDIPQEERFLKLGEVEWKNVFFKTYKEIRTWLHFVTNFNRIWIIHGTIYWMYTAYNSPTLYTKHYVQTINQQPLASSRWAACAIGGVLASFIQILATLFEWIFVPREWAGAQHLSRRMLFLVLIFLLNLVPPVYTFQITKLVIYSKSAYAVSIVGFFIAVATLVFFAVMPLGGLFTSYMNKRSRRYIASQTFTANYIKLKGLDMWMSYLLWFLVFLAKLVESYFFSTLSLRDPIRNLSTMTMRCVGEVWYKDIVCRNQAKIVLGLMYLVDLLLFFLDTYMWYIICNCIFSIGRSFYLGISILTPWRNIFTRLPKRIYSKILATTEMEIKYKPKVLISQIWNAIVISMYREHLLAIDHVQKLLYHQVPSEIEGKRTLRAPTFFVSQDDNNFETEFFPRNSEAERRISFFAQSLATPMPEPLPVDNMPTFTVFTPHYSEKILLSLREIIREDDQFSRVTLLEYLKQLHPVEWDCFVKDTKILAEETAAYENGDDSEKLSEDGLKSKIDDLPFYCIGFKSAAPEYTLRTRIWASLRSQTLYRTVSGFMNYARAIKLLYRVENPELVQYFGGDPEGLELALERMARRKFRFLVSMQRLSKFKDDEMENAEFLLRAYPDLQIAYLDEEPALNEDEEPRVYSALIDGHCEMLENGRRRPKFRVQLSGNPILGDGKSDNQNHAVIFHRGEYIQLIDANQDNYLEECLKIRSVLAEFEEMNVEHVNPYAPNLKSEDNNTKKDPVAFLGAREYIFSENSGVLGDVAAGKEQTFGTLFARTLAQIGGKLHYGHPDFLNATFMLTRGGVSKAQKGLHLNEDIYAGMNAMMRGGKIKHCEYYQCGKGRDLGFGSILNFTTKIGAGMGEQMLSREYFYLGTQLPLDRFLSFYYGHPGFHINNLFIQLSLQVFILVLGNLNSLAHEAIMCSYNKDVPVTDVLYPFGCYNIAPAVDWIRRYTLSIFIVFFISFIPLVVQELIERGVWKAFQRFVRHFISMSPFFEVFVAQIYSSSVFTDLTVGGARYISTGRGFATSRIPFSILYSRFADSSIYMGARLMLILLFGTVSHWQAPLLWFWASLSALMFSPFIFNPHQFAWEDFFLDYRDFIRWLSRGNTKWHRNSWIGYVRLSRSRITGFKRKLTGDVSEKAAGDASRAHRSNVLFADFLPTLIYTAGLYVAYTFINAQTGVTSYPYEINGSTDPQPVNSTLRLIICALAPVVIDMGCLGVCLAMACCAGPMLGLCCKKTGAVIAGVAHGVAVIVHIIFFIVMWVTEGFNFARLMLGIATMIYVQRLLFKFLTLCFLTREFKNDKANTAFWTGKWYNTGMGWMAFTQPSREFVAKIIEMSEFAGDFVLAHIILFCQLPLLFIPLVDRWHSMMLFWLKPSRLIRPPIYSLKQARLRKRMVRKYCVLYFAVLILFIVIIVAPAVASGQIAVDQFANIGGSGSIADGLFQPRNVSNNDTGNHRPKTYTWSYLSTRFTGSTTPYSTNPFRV
- Sequence (O42825 1-195 partner limits assumed): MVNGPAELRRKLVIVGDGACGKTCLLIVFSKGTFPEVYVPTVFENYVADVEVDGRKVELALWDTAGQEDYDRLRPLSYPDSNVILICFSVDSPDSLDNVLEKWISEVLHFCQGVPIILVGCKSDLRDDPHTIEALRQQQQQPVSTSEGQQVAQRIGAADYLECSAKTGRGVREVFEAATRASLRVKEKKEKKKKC
- assay-explanation: β(1,3) glucan synthase assay, C. albicans BWP17 membrane preparation (IC50)
- Format: biochemical
- experimental-conditions: in vitro fungal enzyme activity assay, read-out: IC50 (μg/mL) Candida albicans (converted)
endpoint-label: IC50 (nM)
# number only, unit nM dropped from output

Sample records with IC50:
Nc1ccc(CS(=O)(=O)N2CCN(c3cnn(-c4cc(F)cc(F)c4)c(=O)c3OCC3(CF)CC3)CC2)cc1 [932Z] = 231
Nc1ccc(CS(=O)(=O)N2CCN(c3cnn(-c4cccc(Cl)c4)c(=O)c3OCc3ccccc3)CC2)cc1 [1529Z-19] = 230
O=c1c(OC2CCCC2)c(N2CCN(Cc3c(Cl)cccc3Cl)CC2)cnn1-c1cccc(Cl)c1 [208Z] = 2620

Please find the next compound below.
[in] Item Cc1ccc(CNS(=O)(=O)N2CCN(c3cnn(-c4cc(F)cc(F)c4)c(=O)c3OC3CCC(F)C3)CC2)cc1N (stereo not shown) [1715Z] with glucan synthase (Candida albicans) - IC50?
[out] 523

----------
Below, each of the compounds is paired with its reported pIC50 value.
- experimental-system: glucan synthase (Saccharomyces cerevisiae)
- Construct: glucan synthase sources (2 μL permeabilized PM503 cells, or 3 μL membrane preparations from either PM503, BWP17, or ND158); endogenous in cells
- assay-explanation: β(1,3) glucan synthase assay, S. cerevisiae PM503 permeabilized cells or membrane preparation (IC50)
Field pIC50 (float): negative decimal logarithm of the concentration in molar.

CC1(COc2c(N3CCN(S(=O)(=O)Cc4ccc(N)cc4)CC3)cnn(-c3cc(F)cc(F)c3)c2=O)CC1 [767Z] = 7.04
CC1(COc2c(N3CCN(S(=O)(=O)Cc4ccc(I)cc4)CC3)cnn(-c3cccc(Cl)c3)c2=O)CC1 = 7.04
O=c1c(OC2Cc3ccccc3CC2F)c(N2CCN(S(=O)(=O)CF)CC2)cnn1-c1cc(F)cc(F)c1 (stereo not drawn) [1267Z] = 6.70
Cc1ccc(Cc2c(N3CCN(S(=O)(=O)C(C)C)CC3)cnn(-c3cc(F)cc(F)c3)c2=O)cc1 [119Z] = 6.90
O=c1c(OCC2CC2(F)F)c(N2CCN(S(=O)(=O)Cc3ccccc3)CC2)cnn1-c1cc(F)cc(F)c1 (stereo not drawn) [1529Z-180] = 8.74
O=c1c(N2CCOCC2)c(N2CCN(S(=O)(=O)Cc3ccccc3)CC2)cnn1Cc1c(F)cccc1Cl [30Z] = 6.15

[in] Request the reported pIC50 associated with CC1(COc2c(N3CCN(S(=O)(=O)NCc4ccc(F)cc4)CC3)cnn(-c3cc(F)cc(F)c3)c2=O)CC1 [1734Z]
[out] 6.97

[in] Okay, and CCCCCCCOc1c(N2CCN(S(=O)(=O)CC)CC2)cnn(-c2ccccc2)c1=O [244Z] ?
[out] 6.70

[in] Then this compound: CC(C)(C)COc1c(N2CCN(S(=O)(=O)Cc3cccc(N)c3)CC2)cnn(-c2cc(F)cc(F)c2)c1=O [1529Z-190]
[out] 7.04

[in] Now the same for CC1CCC(Oc2c(N3CCN(S(=O)(=O)Cc4cccc(N)c4)CC3)cnn(-c3ccccc3)c2=O)C1 (stereo not drawn) [1529Z-70]
[out] 6.87

[in] Also, O=c1c(OC2CCCC2)c(N2CCN(S(=O)(=O)NCc3ccccc3)CC2)cnn1-c1cc(F)cc(F)c1 [1629Z] please.
[out] 7.44

[in] Input O=c1c(OCC2(CF)CC2)c(N2CCN(S(=O)(=O)NCc3ccc4ncoc4c3)CC2)cnn1-c1cccc(Cl)c1 [1743Z]
[out] 6.94

[in] Same thing, different compound: O=c1c(OC2CCCC2)c(N2CCN(Cc3c(Cl)cccc3Cl)CC2)cnn1-c1cccc(Cl)c1 [208Z]
[out] 6.69

[in] Ok, now CC(C)(C)COc1c(N2CCN(S(=O)(=O)Cc3cccc(N)c3)CC2)cnn(-c2cccc(Cl)c2)c1=O [1529Z-151]
[out] 6.89

[in] Request: CC1(COc2c(N3CCN(S(=O)(=O)NCc4ccc(N)c(F)c4)CC3)cnn(-c3cccc(Cl)c3)c2=O)CC1 [1712Z]
[out] 6.86

[in] And what about the compound O=c1c(OCC2CC2)c(N2CCN(S(=O)(=O)Cc3ccccc3)CC2)cnn1-c1cccc(Cl)c1 [1529Z-185] ?
[out] 7.93

----------
- experimental-system: glucan synthase (Saccharomyces cerevisiae, UniProt P38631)
- Construct: glucan synthase sources (2 μL permeabilized PM503 cells, or 3 μL membrane preparations from either PM503, BWP17, or ND158); endogenous in cells
- assay-explanation: β(1,3) glucan synthase assay, S. cerevisiae PM503 permeabilized cells or membrane preparation (IC50)
Here, each record is paired with measured IC50 data.
Number only, in nM; omit the unit.

Look over these answered cases.
CS(=O)(=O)N1CCN(c2cnn(-c3cccc(Cl)c3)c(=O)c2OC2CCc3ccccc3C2)CC1 (stereo not shown) [974Z] = 252
CC1(COc2c(N3CCN(S(=O)(=O)NCc4ccc(N)cc4)CC3)cnn(-c3cc(F)cc(F)c3)c2=O)CC1 [1634Z] = 303
Nc1ccc(CS(=O)(=O)N2CCN(c3cnn(-c4cccc(Cl)c4)c(=O)c3OCC3(CF)CC3)CC2)cc1 [809Z] = 71.2
O=c1c(Nc2ccc(F)cc2)c(N2CCN(S(=O)(=O)Cc3ccccc3)CC2)cnn1-c1cccc(Cl)c1 [47Z] = 45.1

[in] # returns recorded IC50 (system: glucan synthase (Saccharomyces cerevisiae, UniProt P38631)) for CC1(COc2c(N3CCN(S(=O)(=O)Cc4ccc(N)cc4)CC3)cnn(-c3cccc(Cl)c3)c2=O)CC1 [745Z]
[out] 73.5

[in] Next: Nc1ccc(CS(=O)(=O)N2CCN(c3cnn(-c4cc(F)cc(F)c4)c(=O)c3OC3CCC(F)C3)CC2)cc1 (stereo not shown) [1529Z-6]
[out] 35.5

[in] Subsequent entry: CC1(COc2c(N3CCN(S(=O)(=O)Cc4ccc5ncoc5c4)CC3)cnn(-c3cc(F)cc(F)c3)c2=O)CC1 [1891Z]
[out] 87.5
